# IC50 per entry
molecular target: human Nav1.8 (Homo sapiens); construct: expressed in transfected cells; host or cells: HEK293 (HEK293-Nav1.8); assay: Nav1.8 sodium channels assay, QPatch 48 HTX electrophysiology in HEK293-Nav1.8 cells; assay type: cell-based; settings: at least one set of experimental runs; read-out: average pIC50 value against Nav1.8 (converted)
Sequence (Q9Y5Y9 whole entry): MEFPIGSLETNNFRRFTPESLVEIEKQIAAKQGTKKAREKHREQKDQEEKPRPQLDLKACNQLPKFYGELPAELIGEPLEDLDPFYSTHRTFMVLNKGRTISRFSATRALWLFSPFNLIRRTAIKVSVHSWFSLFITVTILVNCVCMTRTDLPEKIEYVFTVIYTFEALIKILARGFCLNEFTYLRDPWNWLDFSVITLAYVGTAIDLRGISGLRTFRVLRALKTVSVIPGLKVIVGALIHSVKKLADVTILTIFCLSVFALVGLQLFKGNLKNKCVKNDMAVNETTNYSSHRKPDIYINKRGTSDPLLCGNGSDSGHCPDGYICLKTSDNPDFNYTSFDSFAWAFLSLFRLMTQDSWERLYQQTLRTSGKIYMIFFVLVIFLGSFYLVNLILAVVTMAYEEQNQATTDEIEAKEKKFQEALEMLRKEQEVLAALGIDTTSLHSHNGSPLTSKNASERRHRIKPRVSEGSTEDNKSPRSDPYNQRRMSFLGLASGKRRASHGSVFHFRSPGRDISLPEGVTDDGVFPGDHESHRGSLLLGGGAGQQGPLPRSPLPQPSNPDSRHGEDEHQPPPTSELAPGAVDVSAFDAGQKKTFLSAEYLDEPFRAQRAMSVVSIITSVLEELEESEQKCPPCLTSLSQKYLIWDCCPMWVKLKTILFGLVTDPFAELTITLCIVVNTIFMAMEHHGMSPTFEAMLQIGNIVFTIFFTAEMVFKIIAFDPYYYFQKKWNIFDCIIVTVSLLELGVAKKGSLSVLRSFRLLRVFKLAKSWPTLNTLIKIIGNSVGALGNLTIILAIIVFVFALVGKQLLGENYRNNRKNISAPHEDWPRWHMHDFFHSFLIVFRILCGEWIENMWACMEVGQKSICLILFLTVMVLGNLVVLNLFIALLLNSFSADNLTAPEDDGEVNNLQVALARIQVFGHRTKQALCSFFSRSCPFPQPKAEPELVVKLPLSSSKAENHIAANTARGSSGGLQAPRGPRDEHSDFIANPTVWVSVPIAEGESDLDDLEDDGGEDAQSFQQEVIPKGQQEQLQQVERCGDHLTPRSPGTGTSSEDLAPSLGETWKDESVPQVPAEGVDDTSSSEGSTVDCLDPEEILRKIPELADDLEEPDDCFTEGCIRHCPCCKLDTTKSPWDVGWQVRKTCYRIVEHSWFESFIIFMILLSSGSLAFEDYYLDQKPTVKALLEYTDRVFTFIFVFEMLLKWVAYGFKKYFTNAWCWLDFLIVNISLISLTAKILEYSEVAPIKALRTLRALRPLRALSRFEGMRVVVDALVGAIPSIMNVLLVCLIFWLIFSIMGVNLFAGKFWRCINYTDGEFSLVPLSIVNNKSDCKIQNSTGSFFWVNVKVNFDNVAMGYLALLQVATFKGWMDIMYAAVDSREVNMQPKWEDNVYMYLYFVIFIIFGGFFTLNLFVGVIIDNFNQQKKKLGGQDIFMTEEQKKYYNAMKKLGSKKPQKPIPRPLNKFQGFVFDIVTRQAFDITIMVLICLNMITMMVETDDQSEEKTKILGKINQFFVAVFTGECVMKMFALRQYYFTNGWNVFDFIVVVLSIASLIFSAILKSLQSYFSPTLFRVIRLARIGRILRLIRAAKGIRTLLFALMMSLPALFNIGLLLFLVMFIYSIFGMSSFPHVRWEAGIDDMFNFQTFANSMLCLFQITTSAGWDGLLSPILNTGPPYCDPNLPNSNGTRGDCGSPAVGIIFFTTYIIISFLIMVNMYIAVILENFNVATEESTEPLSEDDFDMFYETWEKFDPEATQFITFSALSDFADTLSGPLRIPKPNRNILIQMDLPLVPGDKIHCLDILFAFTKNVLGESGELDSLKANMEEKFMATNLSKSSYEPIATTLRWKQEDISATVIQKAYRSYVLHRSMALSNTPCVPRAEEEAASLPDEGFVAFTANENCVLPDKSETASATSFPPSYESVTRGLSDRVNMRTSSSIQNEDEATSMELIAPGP
Sequence (Q07699 19-218 partner): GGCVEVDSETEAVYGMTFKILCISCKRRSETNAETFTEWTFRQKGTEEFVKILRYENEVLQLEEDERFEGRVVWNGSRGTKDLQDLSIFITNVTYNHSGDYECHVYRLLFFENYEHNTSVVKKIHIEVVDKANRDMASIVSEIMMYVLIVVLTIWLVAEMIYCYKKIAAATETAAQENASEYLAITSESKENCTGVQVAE

compound: CCc1cc(F)ccc1N1CN(c2ccncc2C)C(=O)c2cc(Cl)c(C#N)cc21 [Example 243]
IC50: 126 to 631 nM
--
compound: Cc1cc(F)ccc1N1CN(c2ccc(=O)n(C)c2)C(=O)c2ccc(C(F)(F)F)cc21 [Example 1]
IC50: 794 to 7940 nM
--
compound: Cc1cc(Br)ccc1N1CN(c2ccc(=O)[nH]c2)C(=O)c2ccc(C(F)(F)F)cc21 [Example 146]
IC50: 126 to 631 nM
--
compound: Cc1cc(F)ccc1N1CN(c2ccc(=O)[nH]c2C)C(=O)c2ccc(C3COC3)cc21 [Example 265]
IC50: 126 to 631 nM
